assayTarget: CDK4 CCND3 (human) (UniProt P11802+P30281)
Sequence (P11802 whole entry, looked up): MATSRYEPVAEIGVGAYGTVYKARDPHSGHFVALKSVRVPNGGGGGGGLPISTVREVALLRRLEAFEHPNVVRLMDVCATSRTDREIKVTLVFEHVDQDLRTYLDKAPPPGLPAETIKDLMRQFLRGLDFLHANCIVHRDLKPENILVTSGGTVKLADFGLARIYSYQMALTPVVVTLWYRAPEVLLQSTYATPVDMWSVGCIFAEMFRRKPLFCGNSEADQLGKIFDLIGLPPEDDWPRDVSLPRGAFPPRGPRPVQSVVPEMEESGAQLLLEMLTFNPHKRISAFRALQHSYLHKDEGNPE
Sequence (P30281 whole entry, looked up): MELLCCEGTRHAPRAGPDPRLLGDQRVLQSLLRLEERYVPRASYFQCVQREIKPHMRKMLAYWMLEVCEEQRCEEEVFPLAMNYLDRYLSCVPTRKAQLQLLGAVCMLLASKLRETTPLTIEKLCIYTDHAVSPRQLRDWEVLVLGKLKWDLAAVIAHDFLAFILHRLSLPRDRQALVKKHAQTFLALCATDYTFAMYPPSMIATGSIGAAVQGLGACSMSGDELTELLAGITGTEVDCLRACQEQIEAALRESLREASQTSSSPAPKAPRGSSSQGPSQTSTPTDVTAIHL
assay: KINOMEscan competition binding
particulars: compound 10.0 µM
Reported values of kinase still bound, per cent of control for individual entries
Respond numerically; units are % and should not be typed.

Solved entries:
1) CC(=O)c1c(C)c2cnc(Nc3ccc(N4CCNCC4)cn3)nc2n(C2CCCC2)c1=O
2
2) COc1cc2c(Nc3ccc(NC(=O)c4ccccc4)cc3)ncnc2cc1OCCCN1CCOCC1
100
3) CCCS(=O)(=O)Nc1ccc(F)c(C(=O)c2c[nH]c3ncc(Cl)cc23)c1F
70

Then this compound:
Prompt: Please look at this compound and report its kinase still bound, per cent of control: "N#Cc1cc(-c2ccnc(Nc3ccc(-n4cnc(-c5cccnc5)n4)cc3)n2)cc(N2CCOCC2)c1"
Response: 12

###

Reported values of kinase still bound, per cent of control for individual entries
assayTarget: CDK18 (human) (UniProt Q07002)
Sequence (Q07002 whole entry, looked up): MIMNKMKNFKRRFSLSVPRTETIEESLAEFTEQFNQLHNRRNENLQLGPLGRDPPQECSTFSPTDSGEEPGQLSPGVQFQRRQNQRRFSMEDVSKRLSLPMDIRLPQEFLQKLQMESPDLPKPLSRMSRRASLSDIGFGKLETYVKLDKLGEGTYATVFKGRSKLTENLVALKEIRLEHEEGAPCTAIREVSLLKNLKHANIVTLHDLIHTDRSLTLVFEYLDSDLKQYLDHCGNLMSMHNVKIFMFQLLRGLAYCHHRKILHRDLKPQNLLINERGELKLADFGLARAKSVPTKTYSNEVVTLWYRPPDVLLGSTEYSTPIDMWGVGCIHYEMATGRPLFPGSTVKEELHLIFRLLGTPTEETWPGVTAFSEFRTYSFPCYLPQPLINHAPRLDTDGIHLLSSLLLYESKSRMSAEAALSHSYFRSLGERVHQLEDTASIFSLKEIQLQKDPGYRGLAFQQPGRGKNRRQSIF
assay: KINOMEscan competition binding
particulars: compound 10.0 µM

Solved entries:
1. CCOc1cc(N2CCC(O)CC2)ccc1Nc1ncc2c(n1)N(C)c1ccccc1C(=O)N2C
100%
2. COc1cc2ncnc(Nc3cccc(Cl)c3)c2cc1OC
79%
3. O=c1[nH]c2ccccc2n1C1CCN(Cc2ccc(-c3nc4cc5[nH]cnc5cc4nc3-c3ccccc3)cc2)CC1
97%
4. CNC(=O)Nc1ccc(-c2nc(N3CC4CCC(C3)O4)c3cnn(C4CCC5(CC4)OCCO5)c3n2)cc1
92%
5. C=CC(=O)Nc1ccc(C(=O)c2sc(Nc3ccc(N4CCN(C)CC4)cc3OC)nc2N)cc1
100%
6. CCCS(=O)(=O)Nc1ccc(F)c(C(=O)c2c[nH]c3ncc(Cl)cc23)c1F
73%

Prompt: Please look at this molecule and report its kinase still bound, per cent of control: "CCN1CCN(Cc2ccc(NC(=O)c3ccc(C)c(/C=C/c4cnc5[nH]ccc5c4OC)c3)cc2C(F)(F)F)CC1"
Response: 100%

Prompt: Please look at this molecule and report its kinase still bound, per cent of control: CC1=C(C(=O)Nc2cc3cn[nH]c3cc2F)C(c2ccc(C(F)(F)F)cc2)CC(=O)N1 (centres undefined)
Response: 100%

Prompt: Please look at this molecule and report its kinase still bound, per cent of control: "N#Cc1cc(-c2ccnc(Nc3ccc(-n4cnc(-c5cccnc5)n4)cc3)n2)cc(N2CCOCC2)c1"
Response: 43%

###

Reported values of kinase still bound, per cent of control for individual entries
assayTarget: RPS6KA4 KD2 (human)
assay: KINOMEscan competition binding
particulars: compound 10.0 µM
Respond numerically; units are % and should not be typed.

Solved entries:
1) O=c1[nH]c2ccccc2n1C1CCN(Cc2ccc(-c3nc4cc5[nH]cnc5cc4nc3-c3ccccc3)cc2)CC1
82
2) CC1=C(C(=O)Nc2cc3cn[nH]c3cc2F)C(c2ccc(C(F)(F)F)cc2)CC(=O)N1 (centres undefined)
100
3) CCOc1cc(N2CCC(O)CC2)ccc1Nc1ncc2c(n1)N(C)c1ccccc1C(=O)N2C
100

Then this molecule:
Prompt: Please look at this molecule and report its kinase still bound, per cent of control: "CCN1CCN(Cc2ccc(NC(=O)c3ccc(C)c(/C=C/c4cnc5[nH]ccc5c4OC)c3)cc2C(F)(F)F)CC1"
Response: 30

###

Reported values of kinase still bound, per cent of control for individual entries
assayTarget: STK11 (human)
assay: KINOMEscan competition binding
particulars: compound 10.0 µM
Respond numerically; units are % and should not be typed.

1. COc1cc(N2CCC(C(N)=O)CC2)ccc1Nc1nc(N)c(Cl)c(Nc2ccccc2S(=O)(=O)C(C)C)n1
100
2. COc1ccc(N(C(=O)Oc2cc(C(=O)Nc3cccc(C(F)(F)F)c3)ccc2C)c2ccnc(Nc3ccc(N4CCN(C)CC4)cc3)n2)c(OC)c1
100
3. COc1cc(C)c(Sc2cnc(NC(=O)c3ccc(CNC(C)C(C)C)cc3)s2)cc1C(=O)N1CCN(C(C)=O)CC1 (stereo not drawn)
100

Then this compound:
Prompt: Enter measured kinase still bound, per cent of control, system STK11 (human), for the compound shown: "COc1cc2ncnc(Nc3cccc(Cl)c3)c2cc1OC"
Response: 86

Values were extracted from the kinase profiling compilation of Christmann-Franck et al. (2016).
